# system-name: Serine/threonine-protein kinase pim-2 (Homo sapiens)
# measurement-conditions: at 10 µM
// assign 1 if residual activity falls strictly below 80%, else -1 (ties count as -1)

// query A record lists O=C1NC(=O)C(c2c[nH]c3ccccc23)=C1c1c[nH]c2ccccc12 . Is its residual activity below 80%?
// result 1

// query Is it true that residual activity reported for O=C1Nc2ccccc2/C1=C\c1c(Cl)[nH]c2ccccc12 is less than 80%?
// result 1

// query Given the entry O=C1Nc2ccc(Cl)cc2/C1=C/c1cc(Cl)c(O)c(Cl)c1 , would its reported residual activity be below 80%?
// result 1

// query In the record for O=C1NC(=O)C(c2cn(CCCn3ccnc3)c3ccccc23)=C1Nc1ccccc1 , is residual activity less than 80%?
// result 1

// query # TODO verify residual activity < 80% strictly for this compound: CCCCc1c(-c2ccc(OC)cc2)[nH]c2nccnc12
// result -1

// query Answer whether the compound Nc1ncnc2[nH]nc(Nc3ccc(F)cc3)c12 has residual activity strictly less than 80%
// result -1

// query Decide: residual activity of Nc1n[nH]c2nc3ccccc3nc12 strictly below 80%?
// result -1

// query Item Cn1c2ccccc2c2c3c(c4c5ccccc5n(CCC#N)c4c21)CNC3=O : residual activity beneath 80%, strictly?
// result 1

// query Would you kindly verify if residual activity of CN(C)S(=O)(=O)c1ccc2c(c1)/C(=C/c1cc3c([nH]1)CCCC3)C(=O)N2 is strictly less than 80%?
// result -1

// query Bench note: check whether CCCC(=O)Oc1ccc2[nH]c(C(=O)c3cc4ccccc4[nH]3)cc2c1 shows residual activity below 80%
// result -1
